# target_or_system: human prostate specific membrane antigen (PSMA), full-length, on cells (human, UniProt Q04609 1-750)
# Sequence (Q04609 whole entry): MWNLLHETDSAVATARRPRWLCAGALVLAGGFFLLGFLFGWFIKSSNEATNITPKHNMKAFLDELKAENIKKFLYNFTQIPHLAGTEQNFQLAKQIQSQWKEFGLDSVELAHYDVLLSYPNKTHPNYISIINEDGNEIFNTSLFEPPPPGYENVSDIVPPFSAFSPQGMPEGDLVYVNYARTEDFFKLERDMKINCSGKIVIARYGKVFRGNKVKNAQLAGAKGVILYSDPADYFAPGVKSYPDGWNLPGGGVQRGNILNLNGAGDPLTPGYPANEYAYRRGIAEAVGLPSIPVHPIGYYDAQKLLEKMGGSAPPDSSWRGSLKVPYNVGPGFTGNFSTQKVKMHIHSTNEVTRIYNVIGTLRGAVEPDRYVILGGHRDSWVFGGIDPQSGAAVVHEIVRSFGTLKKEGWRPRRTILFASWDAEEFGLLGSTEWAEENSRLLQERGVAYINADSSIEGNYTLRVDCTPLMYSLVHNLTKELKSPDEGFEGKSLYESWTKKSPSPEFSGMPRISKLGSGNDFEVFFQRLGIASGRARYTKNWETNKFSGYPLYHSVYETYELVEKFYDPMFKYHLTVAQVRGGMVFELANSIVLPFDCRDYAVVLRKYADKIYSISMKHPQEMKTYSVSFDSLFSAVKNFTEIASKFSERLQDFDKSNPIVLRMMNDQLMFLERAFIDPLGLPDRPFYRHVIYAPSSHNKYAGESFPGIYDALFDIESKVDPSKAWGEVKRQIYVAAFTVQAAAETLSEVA
# measurement_description: cell-based or functional assay
readout_name: IC50 Toxin (nM), DU145 PSMA cells, 48 h
Entry rule: numbers only, all in nM.

Prompt: For HiPEG B-2-A-His6 val-cit-PAB-MMAE (bispecific antibody, HiPEG val-cit-PAB-MMAE attached via the C-terminal His6-tag, DAR 1) EVQLLESGGGLVQPGGSLRLSCAASGFSFSSYAMSWVRQAPGKGLEWVSSIGENDGTTDYADSVKGRFTISRDNSKSMLYLQMNSLRVEDTAVYYCVKDGVHWGQGTLVTVSSGGGGSGGGGSGGGGSGGGGSGGGGSGGGGSEVQLVESGGGVVQPGRSLRLSCAASGFSFSGYGMHWVRQAPGKGLEWVAYISYDGSNKYYADSVKGRFTISRDNSKNTLYLQMNSLRAEDTAVYYCAKDPAWGLRLGESSSYDFDIWGQGTMVTVSS , what is its reported IC50 Toxin (nM), DU145 PSMA cells, 48 h?
Completion: 0.15
